Reference source: paper PMC7192616

Target: T1, mRBM20(513-621) F560A (Mus musculus, UniProt Q3UQS8 513-621, F560A)
T1 sequence: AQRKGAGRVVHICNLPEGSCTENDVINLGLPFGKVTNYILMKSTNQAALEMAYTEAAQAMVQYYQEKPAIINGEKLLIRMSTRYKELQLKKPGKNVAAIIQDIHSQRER
Experiment: ITC
pKd: −log10 of the molar value.
MEASURED_QUANTITY: pKd

>>> measurement("AUCUUA (ssRNA)")
3.81
